molecular target: human mGluR5 receptor (Homo sapiens (Human), UniProt P41594); assay: Calcium influx assay based on fluorescence (mGluR5 PAM activity); conditions: human mGluR5 receptor-overexpressed HEK293 cell line; L-glutamate EC20; Fluo-4, FLIPR
Sequence (P41594 21-1212): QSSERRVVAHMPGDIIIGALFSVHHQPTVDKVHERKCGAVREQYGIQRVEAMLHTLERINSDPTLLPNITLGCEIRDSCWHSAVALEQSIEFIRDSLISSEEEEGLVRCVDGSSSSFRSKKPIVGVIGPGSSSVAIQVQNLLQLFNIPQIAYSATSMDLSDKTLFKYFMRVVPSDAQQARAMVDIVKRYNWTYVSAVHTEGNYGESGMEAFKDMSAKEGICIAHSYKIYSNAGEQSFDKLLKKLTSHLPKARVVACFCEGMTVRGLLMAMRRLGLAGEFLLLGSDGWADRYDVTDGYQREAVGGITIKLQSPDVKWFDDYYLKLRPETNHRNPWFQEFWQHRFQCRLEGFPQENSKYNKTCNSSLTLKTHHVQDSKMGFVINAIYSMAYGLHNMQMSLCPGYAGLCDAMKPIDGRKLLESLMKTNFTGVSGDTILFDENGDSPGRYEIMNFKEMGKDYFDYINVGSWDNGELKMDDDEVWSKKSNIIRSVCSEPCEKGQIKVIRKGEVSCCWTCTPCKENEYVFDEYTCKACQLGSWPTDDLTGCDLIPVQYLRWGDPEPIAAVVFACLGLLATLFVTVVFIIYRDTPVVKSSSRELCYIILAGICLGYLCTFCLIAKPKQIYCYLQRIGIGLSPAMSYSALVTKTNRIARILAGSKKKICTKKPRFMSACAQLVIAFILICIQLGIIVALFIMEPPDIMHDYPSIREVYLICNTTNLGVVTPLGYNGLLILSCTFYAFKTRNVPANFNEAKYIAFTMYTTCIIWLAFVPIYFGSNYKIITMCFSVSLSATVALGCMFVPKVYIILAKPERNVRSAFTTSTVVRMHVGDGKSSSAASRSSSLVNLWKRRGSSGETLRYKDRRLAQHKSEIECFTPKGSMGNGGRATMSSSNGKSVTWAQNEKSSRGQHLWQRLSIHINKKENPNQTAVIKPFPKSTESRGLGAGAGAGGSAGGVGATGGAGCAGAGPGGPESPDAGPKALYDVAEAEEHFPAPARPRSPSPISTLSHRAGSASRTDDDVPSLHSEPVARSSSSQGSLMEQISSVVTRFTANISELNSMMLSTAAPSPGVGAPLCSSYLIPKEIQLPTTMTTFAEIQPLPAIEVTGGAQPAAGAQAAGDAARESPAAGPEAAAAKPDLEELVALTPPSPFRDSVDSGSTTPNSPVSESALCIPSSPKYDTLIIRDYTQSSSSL
pEC50: −log10 of the molar value.
Observation type: pEC50

Completed entries (count: 8):
COc1cc(Cl)ccc1-c1cnc2nc(COc3ccccn3)cn2c1 [Example 111]    6.30 to 7.00
COc1cc(F)ccc1-c1cnc2nc(COc3ccccn3)cn2c1 [Example 104]    6.30 to 7.00
Cc1c(F)cccc1-c1cnc2nc(COc3ccccn3)cn2c1 [Example 109]    6.30 to 7.00
Fc1ccc(-c2cnc3nc(COc4cncc(F)c4)cn3c2)cc1 [Example 171]    6.30 to 7.00
Cc1c(F)cccc1-c1cnc2nc(COc3ccc(F)cn3)cn2c1 [Example 124]    6.30 to 7.00
Nc1cccc(-c2cnc3nc(COc4ccccc4)cn3c2)c1 [Example 9]    6.00 to 6.30
Fc1ccc(OCc2cn3cc(-c4ccc(F)cc4CCl)cnc3n2)cc1 [Example 197]    6.30 to 7.00
Nc1cc(F)ccc1-c1cnc2nc(COc3cncc(F)c3)cn2c1 [Example 175]    6.00 to 6.30

Turning to the following molecule.
Input: Answer with reported pEC50 of COc1cc(-c2cnc3nc(COc4ccccc4)cn3c2)c(F)cc1F [Example 28]
Output: 6.00 to 6.30
